Reported pEC50 values for the following molecules.
# TARGET: hAHR (Homo sapiens, UniProt P35869)
# Construct: expressed in transfected cells
# Sequence (P35869 11-848): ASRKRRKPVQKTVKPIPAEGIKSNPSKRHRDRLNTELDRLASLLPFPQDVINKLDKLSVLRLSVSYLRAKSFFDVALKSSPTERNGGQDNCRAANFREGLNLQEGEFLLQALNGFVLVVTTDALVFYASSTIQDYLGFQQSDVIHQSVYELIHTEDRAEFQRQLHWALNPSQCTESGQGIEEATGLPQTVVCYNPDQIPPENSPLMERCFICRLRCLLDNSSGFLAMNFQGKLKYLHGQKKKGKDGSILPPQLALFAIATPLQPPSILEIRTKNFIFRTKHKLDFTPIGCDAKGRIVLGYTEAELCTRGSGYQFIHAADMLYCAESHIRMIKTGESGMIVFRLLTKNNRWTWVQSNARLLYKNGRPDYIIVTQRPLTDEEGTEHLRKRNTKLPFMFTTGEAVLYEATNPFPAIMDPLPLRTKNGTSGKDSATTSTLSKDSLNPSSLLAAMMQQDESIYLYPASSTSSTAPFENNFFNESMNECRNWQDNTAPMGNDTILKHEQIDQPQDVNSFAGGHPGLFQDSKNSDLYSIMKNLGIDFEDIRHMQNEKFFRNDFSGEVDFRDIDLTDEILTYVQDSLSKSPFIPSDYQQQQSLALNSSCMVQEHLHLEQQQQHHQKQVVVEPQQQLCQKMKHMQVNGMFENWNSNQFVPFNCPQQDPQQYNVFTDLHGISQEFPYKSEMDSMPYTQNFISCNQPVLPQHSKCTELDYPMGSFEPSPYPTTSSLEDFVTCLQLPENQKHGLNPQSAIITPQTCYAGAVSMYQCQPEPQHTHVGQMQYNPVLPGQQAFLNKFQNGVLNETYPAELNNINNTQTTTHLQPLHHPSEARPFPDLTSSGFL
# MEASUREMENT_NOTES: hAHR nuclear translocation assay
# Assay type: cell-based
# SETUP_CONDITIONS: Jump-In T-REx HEK293 cells expressing AhR-EGFP; 45 min incubation; ratio of EGFP intensity in nuclear over cytosol; 20-point curve
pEC50: −log10 of the molar value.
READOUT: pEC50

MOLECULE | TARGET | READOUT | NUMERIC_RESULT
CC1CCc2c1cc(C(=O)Nc1nccs1)c(=O)n2C (single isomer, unassigned) [Example 63] | hAHR (Homo sapiens, UniProt P35869) | pEC50 | 8.59
CC1CCc2c1c(O)c(C(=O)Nc1ccc(C(F)(F)F)cn1)c(=O)n2C (centres unmarked) [Example 33] | hAHR (Homo sapiens, UniProt P35869) | pEC50 | 8.58
CC1CCc2c1cc(C(=O)Nc1ncccn1)c(=O)n2C (single isomer, unassigned) [Example 82] | hAHR (Homo sapiens, UniProt P35869) | pEC50 | 7.60
CC1CCc2c1c(O)c(C(=O)Nc1ncc(C(F)(F)F)cn1)c(=O)n2C (centres unmarked) [Example 32] | hAHR (Homo sapiens, UniProt P35869) | pEC50 | 9.07
COc1cnc(NC(=O)c2c(O)c3c(n(C)c2=O)CCC3C)nc1 (single isomer, unassigned) [Example 101] | hAHR (Homo sapiens, UniProt P35869) | pEC50 | 8.22
CC1CCc2c1c(O)c(C(=O)Nc1nccc(C(F)(F)F)n1)c(=O)n2C (centres unmarked) [Example 31] | hAHR (Homo sapiens, UniProt P35869) | pEC50 | 8.62
Cn1c2c(cc(C(=O)Nc3ccccc3)c1=O)CC(C)(C)C2 [Example 47] | hAHR (Homo sapiens, UniProt P35869) | pEC50 | 9.10
CC1CCc2c1c(O)c(C(=O)Nc1ncco1)c(=O)n2C (single isomer, unassigned) [Example 35] | hAHR (Homo sapiens, UniProt P35869) | pEC50 | 8.35
